These measurements were taken from patent US20250099420A1.

# study.system: GPR139 (Homo sapiens, UniProt Q6DWJ6)
# Sequence (Q6DWJ6 whole entry): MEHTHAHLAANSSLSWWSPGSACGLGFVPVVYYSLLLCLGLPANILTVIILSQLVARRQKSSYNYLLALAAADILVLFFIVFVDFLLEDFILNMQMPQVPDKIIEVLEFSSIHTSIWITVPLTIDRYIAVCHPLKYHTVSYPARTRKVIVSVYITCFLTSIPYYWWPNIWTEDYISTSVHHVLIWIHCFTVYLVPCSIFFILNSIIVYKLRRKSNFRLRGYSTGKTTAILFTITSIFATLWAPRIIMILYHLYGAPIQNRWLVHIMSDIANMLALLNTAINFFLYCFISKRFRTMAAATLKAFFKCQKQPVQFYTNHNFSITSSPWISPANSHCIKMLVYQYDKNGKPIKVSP
# test: GPR139 Agonist titration / agonist counterscreen assay (calcium detection, HEK-GPR139 cells)
# Format: cell-based
# Set-up: expressed in transfected cells; host or cells: HEK Aequorin cells, Maxcyte transient transfection
# recorded.conditions: agonist counterscreen of the antagonists; scientific notation, molarity; read-out: GRP139 Agonist activity EC50
pEC50: −log10 of the molar value.
quantity: pEC50

Query string: Read off the recorded pEC50 for `Cc1cc(C)c(NC(=O)c2ccc(Br)cc2)c(C)c1NC(=O)c1ccc(Br)cc1`
Result string: < 5.05

Query string: Identify pEC50 associated with the molecule `Cc1cc(C)cc(-n2cnc3cc(C(=O)NCc4ccccc4Cl)ccc32)c1`
Result string: < 4.89

Query string: Report pEC50, nothing else, for this molecule: `Cc1ccc(-c2cn(-c3ccccc3)c(SCC(=O)Nc3ccccc3C)n2)cc1`
Result string: < 4.96

Query string: Complete the entry with pEC50 for `O=C(Nc1ccccc1C(=O)O)c1ccc(Oc2ccc([N+](=O)[O-])cc2)cc1`
Result string: < 4.85

Query string: Tell me measured pEC50 for CC1CCCC(NC(=O)c2cccc(NS(=O)(=O)c3ccc(Br)cc3)c2)C1C (centres unmarked) please.
Result string: < 4.85

Query string: // Input: `Cc1cc(C(F)(F)F)nc(SCC(=O)Nc2cccc(C(F)(F)F)c2)c1C#N` . Output its pEC50 only.
Result string: < 4.86

Query string: Annotate the molecule `Cc1c(-c2cccc(NC(=O)C3c4ccccc4Oc4ccccc43)c2)nc2ncccn12` with its measured pEC50.
Result string: < 4.85

Query string: // Input: `O=C(CSc1nc(-c2ccccc2)cn1-c1ccc(F)cc1)Nc1ccccc1` . Output its pEC50 only.
Result string: < 4.95
